Where do the numbers come from? From patent US5380729A.

Could you please report measured Ki for the items listed next?
- subjectOfTest: PCP recognition sites
- assayName: [3H]TCP Radioreceptor Assay (internal screen)
- Format: binding, rat (male Sprague-Dawley
- protocolConditions: rat whole brain membranes; ~1 nM [3H]TCP; room temperature, 25 min
Answers are plain numbers, in nM.

Solved cases (3 shown):
The compound listed as CCOC1(OCC)C2c3ccccc3C(C1C)[n+]1ccccc12.[O-][Cl+3]([O-])([O-])[O-] (centres unmarked) [Example 38] shows Ki equal to 33.8

The compound listed as CCOC1(OCC)C2c3cc(Cl)ccc3C([n+]3ccccc32)C1(C)C.[O-][Cl+3]([O-])([O-])[O-] (centres unmarked) [Example 26] shows Ki equal to 12.4

The compound listed as CCOC1(OCC)C2(C)c3c(OC)cccc3C([n+]3ccccc32)C1(C)C.[O-][Cl+3]([O-])([O-])[O-] (centres unmarked) [Example 32] shows Ki equal to 63.7

Lab note: each compound below needs its Ki filled in.
1. CCOC1(OCC)C2c3c(OC(C)=O)cccc3C([n+]3ccccc32)C1(C)C.[O-][Cl+3]([O-])([O-])[O-] (centres unmarked) [15(a)]
2. CCOC1(OCC)C2c3c(C)ccc(C)c3C(C1C)[n+]1ccccc12.[O-][Cl+3]([O-])([O-])[O-] (centres unmarked) [63(e)]

Reply:
26.4
255

---

- subjectOfTest: PCP recognition sites
- assayName: [3H]TCP Radioreceptor Assay (internal screen)
- Type: binding, rat (male Sprague-Dawley
- protocolConditions: rat whole brain membranes; ~1 nM [3H]TCP; room temperature, 25 min
Hi! Just check whether Ki is below 3000 nM. Below gives yes, equal or above gives no.

Ask: I wonder whether CCOC1(OCC)C2c3cccc(OC)c3C([n+]3ccccc32)C1(C)C (stereo not drawn) has Ki below 3000 nM. Can you tell?
Reply: yes

Ask: I wonder whether CC1(C)C2c3ccccc3C(c3cccc[n+]32)C12OCCCO2 (stereo not drawn) has Ki below 3000 nM. Can you tell?
Reply: no

Ask: I wonder whether CCOC1(OCC)C2c3ccccc3C([n+]3ccccc32)C1(C)C (stereo not drawn) [Example 5] has Ki below 3000 nM. Can you tell?
Reply: yes

Ask: I wonder whether CCOC1(OCC)CC2c3ccccc3C1c1cccc[n+]12 (stereo not drawn) [28(b)] has Ki below 3000 nM. Can you tell?
Reply: no

Ask: I wonder whether CCOC1(OCC)CC2c3ccccc3C1c1cccc[n+]12 (stereo not drawn) [63(a)] has Ki below 3000 nM. Can you tell?
Reply: no

Others:
Ask: I wonder whether CC1(C)C2c3ccccc3C(c3cccc[n+]32)C12OCCO2 (stereo not drawn) has Ki below 3000 nM. Can you tell?
Reply: no

Ask: I wonder whether CCOC1(OCC)C2c3cc(C(F)(F)F)ccc3C([n+]3ccccc32)C1(C)C (stereo not drawn) has Ki below 3000 nM. Can you tell?
Reply: yes

Ask: I wonder whether CCOC1(OCC)C2c3cccc(C)c3C(C1C)[n+]1ccccc12.[O-][Cl+3]([O-])([O-])[O-] (stereo not drawn) has Ki below 3000 nM. Can you tell?
Reply: yes

Ask: I wonder whether CCOC1(OCC)C2c3cc([N+](=O)[O-])ccc3C([n+]3ccccc32)C1(C)C.[O-][Cl+3]([O-])([O-])[O-] (stereo not drawn) has Ki below 3000 nM. Can you tell?
Reply: yes

---

- System: PCP recognition sites
- assayName: [3H]TCP Radioreceptor Assay (external screen)
- Type: binding, rat (whole rat forebrain membranes)
- protocolConditions: @ 10 μM; rat forebrain membranes; 25° C., 60 minutes
readoutKind: Percent inhibition, [3H]TCP (external screen) (%)
Answers are plain numbers, in %.

The compound listed as CCOC1(OCC)CC2c3ccc(C)cc3C1c1cccc[n+]12.[O-][Cl+3]([O-])([O-])[O-] (stereo not drawn) shows Percent inhibition, [3H]TCP (external screen) equal to 0

The compound listed as CCOC1(OCC)CC2c3c(C)cccc3C1c1cccc[n+]12.[O-][Cl+3]([O-])([O-])[O-] (stereo not drawn) shows Percent inhibition, [3H]TCP (external screen) equal to 34

The compound listed as CCOC1(OCC)CC2c3cc(C)c(C)cc3C1c1cccc[n+]12.[O-][Cl+3]([O-])([O-])[O-] (stereo not drawn) shows Percent inhibition, [3H]TCP (external screen) equal to 35

The compound listed as CCOC1(OCC)C2c3c(C)ccc(C)c3C(C1C)[n+]1ccccc12.[O-][Cl+3]([O-])([O-])[O-] (stereo not drawn) [63(e)] shows Percent inhibition, [3H]TCP (external screen) equal to 65

The compound listed as CCOC1(OCC)CC2c3ccccc3C1(C)c1cccc[n+]12.[O-][Cl+3]([O-])([O-])[O-] (stereo not drawn) shows Percent inhibition, [3H]TCP (external screen) equal to 0

Others:
The compound listed as CCOC1(OCC)CC2c3c(C)ccc(C)c3C1c1cccc[n+]12.[O-][Cl+3]([O-])([O-])[O-] (stereo not drawn) shows Percent inhibition, [3H]TCP (external screen) equal to 52

---

- System: PCP recognition sites
- assayName: [3H]TCP Radioreceptor Assay (internal screen)
- Type: binding, rat (male Sprague-Dawley
- protocolConditions: @ 10 μM; rat whole brain membranes; room temperature, 25 min
readoutKind: Percent inhibition, [3H]TCP (internal screen) (%)
Give bare numbers, in %.

Solved cases (5 shown):
The compound listed as CCOC1(OCC)CC2c3ccc(C)cc3C1c1cccc[n+]12.[O-][Cl+3]([O-])([O-])[O-] (stereo not drawn) shows Percent inhibition, [3H]TCP (internal screen) equal to 68

The compound listed as CCOC1(OCC)C2c3c(OC)ccc(OC)c3C([n+]3ccccc32)C1(C)C.[O-][Cl+3]([O-])([O-])[O-] (stereo not drawn) shows Percent inhibition, [3H]TCP (internal screen) equal to 33

The compound listed as CC(=O)Oc1ccc(C(C)(C)C)c2c1C1[n+]3ccccc3C2C2(O[C@H](C)[C@@H](C)O2)C1(C)C (stereo partly drawn) shows Percent inhibition, [3H]TCP (internal screen) equal to 24

The compound listed as CC1(C)C2c3ccccc3C(c3cccc[n+]32)C12O[C@H](COCc1ccccc1)[C@@H](COCc1ccccc1)O2 (stereo partly drawn) shows Percent inhibition, [3H]TCP (internal screen) equal to 11

The compound listed as CC(=O)Oc1ccc(C(C)(C)C)c2c1C1[n+]3ccccc3C2C2(O[C@H](C)C[C@@H](C)O2)C1(C)C (stereo partly drawn) shows Percent inhibition, [3H]TCP (internal screen) equal to 18

Others:
The compound listed as CCOC1(OCC)C2c3c(C(C)(C)C)ccc(OC(C)=O)c3C([n+]3ccccc32)C1(C)C.[O-][Cl+3]([O-])([O-])[O-] (stereo not drawn) shows Percent inhibition, [3H]TCP (internal screen) equal to 12

---

Could you please report measured pKi for the items listed next?
- subjectOfTest: PCP recognition sites
- assayName: [3H]TCP Radioreceptor Assay (internal screen)
- Type: binding, rat (male Sprague-Dawley
- protocolConditions: rat whole brain membranes; ~1 nM [3H]TCP; room temperature, 25 min; hydrate
Answers are plain numbers, as −log10 of the molar value.

Lab note: compound CCOC1(OCC)C2c3c(OC)cccc3C([n+]3ccccc32)C1(C)C (stereo not shown) [19(d), hydrate] tested on PCP recognition sites; recorded pKi was 7.98

Lab note: compound CCOC1(OCC)C2c3ccccc3C([n+]3ccccc32)C1(C)C (single isomer, unassigned) [Example 13(c), hydrate] tested on PCP recognition sites; recorded pKi was 7.96

Lab note: compound CCOC1(OCC)C2c3ccccc3C([n+]3ccccc32)C1(C)C (single isomer, unassigned; (-)) [Example 12(c), hydrate] tested on PCP recognition sites; recorded pKi was 8.39

Please turn your attention to the following entry.
Lab note: compound C[C@@H]1C[C@@H](C)OC2(O1)C1c3ccccc3C([n+]3ccccc31)C2(C)C (stereo partly shown) [Example 11, hydrate] tested on PCP recognition sites; recorded pKi was 6.30

---

- subjectOfTest: PCP recognition sites
- assayName: [3H]TCP Radioreceptor Assay (internal screen)
- Format: binding, rat (male Sprague-Dawley
- protocolConditions: rat whole brain membranes; ~1 nM [3H]TCP; room temperature, 25 min
readoutKind: log10(Ki) (log10 of the value in nM)
Reminder: these figures are log10 of reported Ki, in nM before transformation.

The compound listed as CCOC1(OCC)C2c3c(F)cc(F)cc3C([n+]3ccccc32)C1(C)C (stereo not shown) [24(b)] shows log10(Ki) equal to 2.43

Lab note: each compound below needs its log10(Ki) filled in.
1. CCOC1(OCC)C2c3cc(Br)ccc3C([n+]3ccccc32)C1(C)C.[O-][Cl+3]([O-])([O-])[O-] (stereo not shown) [Example 35]
2. CCOC1(OCC)C2c3ccccc3C([n+]3ccccc32)C1(OCC)OCC (stereo not shown) [Example 8]
3. CCOC1(OCC)C2c3ccccc3C([n+]3ccccc32)C1(C)C (stereo not shown) [Example 4]
4. CCOC1(OCC)C2c3ccccc3C([n+]3ccccc32)C1(C)C.[O-][Cl+3]([O-])([O-])[O-] (stereo not shown) [1(a)]
5. CCN(CC)C1C2c3ccccc3C(C1C)[n+]1ccccc12 (single isomer, unassigned) [Example 61]

Reply:
[1.79, 3.71, 0.75, 0.92, 3.73]

Lab note: each compound below needs its log10(Ki) filled in.
1. CCOC1(OCC)C2c3ccccc3C([n+]3ccccc32)C1(C)C (stereo not shown) [Example 2]
2. CCN(CC)C1C2c3ccccc3C(C1C)[n+]1ccccc12 (stereo not shown) [Example 62]
3. CCOC1(OCC)C2c3ccccc3C(C1Cl)[n+]1ccccc12 (single isomer, unassigned) [Example 41]

Reply:
[0.72, 4.09, 1.83]

Lab note: each compound below needs its log10(Ki) filled in.
1. CCOC1(OCC)C2c3ccccc3C(C1Cl)[n+]1ccccc12 (single isomer, unassigned) [Example 42]
2. CCOC1(OCC)CC2c3ccccc3C1(C)c1cccc[n+]12.[O-][Cl+3]([O-])([O-])[O-] (stereo not shown) [63(c)]

Reply:
2.50
3.97
